pIC50 (FRET): recorded values
Biological target: RORγ ligand binding domain (LBD) (Homo sapiens (Human), UniProt P51449)
Test: TR-FRET Activity Assay (ligand sensing assay, LANCE)
Settings: TR-FRET, interaction of RORγ-LBD with coactivator peptide

Solved entries:
- QUERY_SMILES: "CC(C)(O)CNC(=O)c1nc(CC2CCCCC2)c(-c2ccc(S(=O)(=O)NC(C)(C)C)c(Cl)c2OC(F)F)s1"
  pIC50 (FRET): "6.9/8.2/8.4"
- QUERY_SMILES: "CC(C)(C)c1cc(-c2sc(C(=O)NCC3(C(N)=O)CCOCC3)nc2CC2CCCCC2)cc(C2(C)CC2)c1"
  pIC50 (FRET): "7.0/7.5/7.7"
- QUERY_SMILES: "CC(C)(C)NS(=O)(=O)c1ccc(-c2sc(C(=O)NCCN3CCOCC3)nc2CC2CCCCC2)cc1C(C)(C)O"
  pIC50 (FRET): "5.8/6.7/6.7"

Read the next record carefully.
# pIC50 (FRET) (compound: `COC(C)(C)c1cc(-c2sc(C(=O)N[C@H]3C[C@H](C(=O)O)C3)nc2CC2CCCCC2)cc(C2(C)CC2)c1` ) is 6.7/7.8/7.9

----------
Molecular target: RORγ (Homo sapiens, UniProt P51449)
Sequence (P51449 whole entry, looked up, the tested form may be a part): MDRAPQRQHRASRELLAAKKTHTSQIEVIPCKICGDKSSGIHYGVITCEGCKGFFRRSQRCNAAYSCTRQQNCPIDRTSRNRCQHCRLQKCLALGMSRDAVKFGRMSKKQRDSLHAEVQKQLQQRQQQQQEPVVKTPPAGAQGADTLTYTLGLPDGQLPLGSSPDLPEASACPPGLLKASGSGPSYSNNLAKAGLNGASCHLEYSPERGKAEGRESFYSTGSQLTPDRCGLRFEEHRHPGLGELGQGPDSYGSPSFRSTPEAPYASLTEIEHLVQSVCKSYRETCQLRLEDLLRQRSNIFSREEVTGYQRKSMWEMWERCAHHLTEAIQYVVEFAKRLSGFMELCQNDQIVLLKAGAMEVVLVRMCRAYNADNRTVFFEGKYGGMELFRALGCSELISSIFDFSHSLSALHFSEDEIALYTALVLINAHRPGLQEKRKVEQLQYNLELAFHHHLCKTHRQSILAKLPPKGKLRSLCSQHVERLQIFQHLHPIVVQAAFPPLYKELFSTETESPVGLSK
Test: RORγ Gal4 Reporter Gene Assay
Type: cell-based
MEASURED_PROPERTY: pIC50 (REN)

- QUERY_SMILES: "CC(C)(C)c1cc(-c2oc(C(=O)NC3CCOCC3)nc2CC2CCCCC2)cc(C2(C)CC2)c1"
  ASSAYED_TARGET: "RORγ (Homo sapiens, UniProt P51449)"
  ENDPOINT_RESULT: "6.9/6.9/6.9"
- QUERY_SMILES: "COCC(C)(C)NS(=O)(=O)c1ccc(-c2sc(C(=O)N3CC4(CCS(=O)(=O)CC4)C3)nc2CC2CCCCC2)c2ccccc12"
  ASSAYED_TARGET: "RORγ (Homo sapiens, UniProt P51449)"
  ENDPOINT_RESULT: "6.5/7.4/7.4"
- QUERY_SMILES: "CC(C)(C)c1cc(-c2sc(C(=O)NC3CCOCC3)nc2CC2CCCCC2)cc(C2(C)CC2)c1"
  ASSAYED_TARGET: "RORγ (Homo sapiens, UniProt P51449)"
  ENDPOINT_RESULT: "7.0/7.3/7.5"

Result for `CC(C)(C)c1cc(-c2sc(C(=O)NCC3(C(N)=O)CCOCC3)nc2CC2CCCCC2)cc(C2(C)CC2)c1` , tested on RORγ (Homo sapiens, UniProt P51449), pIC50 (REN): 7.0/7.5/7.7

----------
Target: UniProtKB P51449
Assay: RORγ Gal4 Reporter Gene Assay
Assay type: cell-based
Conditions: firefly (FF) luciferase, 293T cells
MEASURED_PROPERTY: pIC50 (FF)

// below: answered compounds
- QUERY_SMILES: "CC(C)(C)c1cc(-c2sc(C(=O)N[C@H]3C[C@H](C(=O)O)C3)nc2CC2CCCCC2)cc(C(C)(C)F)c1"
  pIC50 (FF): 7.5
- QUERY_SMILES: "CC(C)(C)c1cc(-c2sc(C(=O)N[C@H]3C[C@H](C(=O)O)C3)nc2CC2CCCCC2)cc(C(C)(C)O)c1"
  pIC50 (FF): 8.2
- QUERY_SMILES: "CCS(=O)(=O)c1ccc(CC(=O)Nc2nc(-c3ccccc3)c(Cc3ccccc3)s2)cc1"
  pIC50 (FF): 6.3

Okay, next one:
The recorded pIC50 (FF) for `CC(C)(C)c1cc(-c2sc(C(=O)N[C@H]3C[C@H](C(=O)O)C3)[n+]([O-])c2CC2CCCCC2)cc(C(C)(C)C)n1` is 7.1

----------
Biological target: RORγ ligand binding domain (LBD) (Homo sapiens (Human))
Experiment: TR-FRET Activity Assay (ligand sensing assay, LANCE)
Settings: TR-FRET, interaction of RORγ-LBD with coactivator peptide
Catalogue of pIC50 (FRET) readings, one per entry.

Consider the following illustrative entries.
- COMPOUND: "CC(C)(C)NS(=O)(=O)c1ccc(-c2sc(C(=O)N[C@H]3C[C@H](C(=O)O)C3)nc2CC2CCCCC2)c2c1CCC2 [9/11]"
  MEASURED_PROPERTY: "pIC50 (FRET)"
  ENDPOINT_RESULT: "6.6/8.5/8.5"
- COMPOUND: "CC1(c2cc(-c3sc(C(=O)N[C@H]4C[C@H](C(=O)O)C4)nc3CC3CCCCC3)cc(C(F)(F)F)c2)CC1 [9/8]"
  MEASURED_PROPERTY: "pIC50 (FRET)"
  ENDPOINT_RESULT: "6.5/7.1/7.1"
- COMPOUND: "CC(C)(O)CNC(=O)c1nc(CC2CCCCC2)c(-c2ccc(S(=O)(=O)NC(C)(C)C)c3ccccc23)o1 [100/7]"
  MEASURED_PROPERTY: "pIC50 (FRET)"
  ENDPOINT_RESULT: "6.6/7.7/7.9"
- COMPOUND: "CC(C)(O)CNC(=O)c1nc(CC2CCCCC2)c(-c2ccc(S(=O)(=O)NC(C)(C)C)c(C(C)(C)O)c2)s1 [6/23]"
  MEASURED_PROPERTY: "pIC50 (FRET)"
  ENDPOINT_RESULT: "6.6/7.5/7.6"
- COMPOUND: "CC1(c2cc(C(=O)NCC(F)(F)F)cc(-c3sc(C(=O)N[C@H]4C[C@H](C(=O)O)C4)nc3CC3CCCCC3)c2)CC1 [7/6]"
  MEASURED_PROPERTY: "pIC50 (FRET)"
  ENDPOINT_RESULT: "6.2/7.1/7.2"

Notebook: CC(C)(C)NS(=O)(=O)c1ccc(-c2sc(C(=O)NC3CCS(=O)(=O)CC3)nc2CC2CCCCC2)cc1C(C)(C)O [6/26] , pIC50 (FRET) read as 6.6/7.7/7.8

Input CC(C)(C)NS(=O)(=O)c1ccc(-c2oc(C(=O)NC34CCC(C(=O)NS(C)(=O)=O)(CC3)CC4)nc2CC2CCCCC2)c2ccccc12 [Example 102] . Output pIC50 (FRET): 6.0/7.3/7.4

----------
Molecular target: RORγ ligand binding domain (LBD) (Homo sapiens (Human))
Assay: TR-FRET Activity Assay (ligand sensing assay, LANCE)
Details: TR-FRET, interaction of RORγ-LBD with coactivator peptide
Recorded pIC50 (FRET) values for a group of molecules are listed next.

- MOLECULE: "CC(C)(C)NS(=O)(=O)c1ccc(-c2sc(NS(C)(=O)=O)nc2CC2CCCCC2)cc1C(F)(F)F [Example 201]"
  pIC50 (FRET): "6.0/6.5/6.6"
- MOLECULE: "CC(C)(O)CNC(=O)c1nc(CC2CCCCC2)c(-c2ccc(S(=O)(=O)NC(C)(C)C)c3cccc(F)c23)s1 [19/14]"
  pIC50 (FRET): "6.4/6.8/6.9"
- MOLECULE: "CC(C)(C)c1cc(-c2oc(C(=O)N[C@H]3C[C@H](C(=O)O)C3)nc2CC2CCCCC2)cc(C2(C)CC2)c1 [100/20]"
  pIC50 (FRET): "6.0/6.8/7.0"
- MOLECULE: "CN1CCN(C(=O)c2nc(CC3CCCCC3)c(-c3ccc(S(=O)(=O)NC(C)(C)C)c4ccccc34)s2)CC1 [6/53]"
  pIC50 (FRET): "6.6/7.1/7.4"
- MOLECULE: "CC(C)(C)NS(=O)(=O)c1ccc(-c2sc(C(=O)NN3CCS(=O)(=O)CC3)nc2CC2CCCCC2)c(Cl)c1Cl [6/21]"
  pIC50 (FRET): "6.8/8.7/8.7"

response.value for CC(C)(C)c1cc(-c2sc(S(N)(=O)=O)nc2CC2CCCCC2)cc(C2(C)CC2)c1 [Example 13] (field: pIC50 (FRET)) = 7.0/6.5/6.7

Memo: CC(C)(C)NS(=O)(=O)c1ccc(-c2oc(C(=O)NC3CCS(=O)(=O)CC3)nc2CC2CCCCC2)c(Cl)c1Cl [100/16] , reported pIC50 (FRET): 6.6/8.4/8.2

----------
Target: RORγ (Homo sapiens, UniProt P51449)
Test: RORγ Gal4 Reporter Gene Assay
Assay type: cell-based
Known pIC50 (REN) of a selection of molecules

Please review the following examples before continuing.
- MOLECULE: "CC(C)(C)NS(=O)(=O)c1ccc(-c2sc(C(=O)NC3CSC3)nc2CC2CCCCC2)cc1C(C)(C)O"
  pIC50 (REN): "7.3/7.9/8.0"
- MOLECULE: "CC(C)(C)NS(=O)(=O)c1ccc(-c2sc(C(=O)N[C@H]3C[C@H](C(=O)O)C3)nc2CC2CCCCC2)cc1C(C)(C)O"
  pIC50 (REN): "6.5/8.0/8.0"
- MOLECULE: "CC(C)(C)NS(=O)(=O)c1ccc(-c2sc(C(=O)NC3C[S+]([O-])C3)nc2CC2CCCCC2)c(Cl)c1Cl (stereo not drawn)"
  pIC50 (REN): "6.9/8.5/8.4"
- MOLECULE: "CCNS(=O)(=O)c1ccc(-c2sc(C(=O)NCC(C)(C)O)nc2CC2CCCCC2)c(Cl)c1Cl"
  pIC50 (REN): "6.9/8.1/8.0"
- MOLECULE: "CC(C)(C)NS(=O)(=O)c1ccc(-c2sc(C(=O)NCc3ncc(S(C)(=O)=O)s3)nc2CC2CCCCC2)c(Cl)c1Cl"
  pIC50 (REN): "7.2/8.3/8.4"

Lab entry: RORγ (Homo sapiens, UniProt P51449) assay, molecule CC1CCCCN1C(=O)c1nc(C(=O)NCC(C)(C)O)sc1-c1ccc(S(=O)(=O)NC(C)(C)C)c2ccccc12 (stereo not drawn) , pIC50 (REN) = 6.1/7.3/7.3

Form field pIC50 (REN) for item `CC(C)(C)NS(=O)(=O)c1ccc(-c2sc(C(=O)NC3CCOCC3)nc2CC2CCCCC2)cc1C(C)(C)O` on RORγ (Homo sapiens, UniProt P51449): 6.8/7.7/7.7

Recorded pIC50 (REN) for `CC(C)(C)NS(=O)(=O)c1ccc(-c2sc(C(=O)NC3CS(=O)(=O)C3)nc2CC2CCCCC2)cc1C(C)(C)O` on RORγ (Homo sapiens, UniProt P51449) was 6.9/7.9/7.9

Entry `CC(C)(C)NS(=O)(=O)c1ccc(-c2sc(C(=O)NCCN3CCOCC3)nc2CC2CCCCC2)cc1C(C)(C)O` ; assay system RORγ (Homo sapiens, UniProt P51449); pIC50 (REN) recorded at 5.8/6.7/6.7

Simply: `CC(C)(C)c1cc(-c2sc(S(N)(=O)=O)nc2CC2CCCCC2)cc(C(C)(C)C)c1` , RORγ (Homo sapiens, UniProt P51449), pIC50 (REN) = 6.8/6.4/6.4

Form field pIC50 (REN) for item `CC(C)(C)NS(=O)(=O)c1ccc(-c2oc(C(=O)N3CC4(CCOCC4)C3)nc2CC2CCCCC2)c2ccccc12` on RORγ (Homo sapiens, UniProt P51449): 6.4/7.2/7.4

Entry `CC(C)(C)NS(=O)(=O)c1ccc(-c2sc(C(=O)NC3CC3)nc2CC2CCCCC2)c(Cl)c1Cl` , RORγ (Homo sapiens, UniProt P51449) data, pIC50 (REN) value: 7.3/8.0/8.0

# pIC50 (REN) measured on RORγ (Homo sapiens, UniProt P51449) for item `CC(C)(O)CC(=O)Nc1nc(CC2CCCCC2)c(-c2ccc(S(=O)(=O)NC(C)(C)C)c(C(F)(F)F)c2)s1` = 6.6/7.5/7.8
